B1: Proto-oncogene vav, residues 782 to 842; numbered along this chain, P15498 (parent)
chain: KYFGTAKARYDFCARDRSELSLKEGDIIKILNKKGQQGWWRGEIYGRVGWFPANYVEEDYS

variants of: B1; assay: abundance fitness (aPCA) (normalised: wild type 0, dead -1); higher = more abundant; growth selection in yeast, the domain comes from the species named; settings: Homo sapiens
The entries below come with measured abundance fitness values attached.
Output spec: single numeric token, no unit.

Use the examples below as a reference point.
| VARIANT | DATA_VALUE |
| --- | --- |
| L22Q | -1.07 |
| C13I | -0.108 |
| N32Y | -0.168 |
| L31S | -0.618 |
| D26W | -0.8 |

Recorded abundance fitness for D11W , please?
-0.715

Could you do the same for L22S , please?
-0.852

Input I44A
0.062

Next variant: G25V
-1.21

Same for K29F
-0.483

Can you check D59M next?
-0.027

Item: Y60W
-0.169

What about V48K ?
-0.071

Also check A53G
-0.4

And for F51A ?
-0.984

And K34A ?
-0.013

Moving on to I28W
-0.591

Another: R15H
-0.293

Repeat with Y60D
0.106

Follow-up item: R17W
-0.223

Try W39N next.
-0.674
